assay: refractive index (Na D-line) (dimensionless); mn = molality of the nth substance listed, in mol/kg; conditions: 303.15 K; 101 kPa; Liquid; Standard Abbe refractometry; m1 = 0.7
Value Type: refractive index

Molecule | Result
O=P(O)(O)O [phosphoric acid] + O | 1.3376
O=P([O-])(O)O.[Li+] [lithium dihydrogen phosphate] + O | 1.3418
O=P([O-])(O)O.[K+] [monopotassium phosphate] + O | 1.3427
O=P([O-])([O-])[O-].[K+].[K+].[K+] [tripotassium phosphate] + O | 1.3588
O=P([O-])([O-])[O-].[Na+].[Na+].[Na+] [trisodium phosphate] + O | 1.3581
O=P([O-])(O)O.[Na+] [sodium dihydrogen phosphate] + O | 1.3435
O=P([O-])([O-])O.[Na+].[Na+] [disodium hydrogen phosphate] + O | 1.3507
